target: Full length human recombinant HDAC8 protein (Homo sapiens, UniProt Q9BY41); construct: Full length human recombinant HDAC8 protein was expressed in baculoviral system; assay: In vitro histone deacetylase assay: enzymatic HDAC8 assay, electrophoretic mobility shift; conditions: substrate RHKK(Ac)-NH2, 1 nM enzyme, compounds listed under IC50 range headings
Listing: IC50 of selected compounds

compound | IC50
O=C(/C=C/c1ccccc1C(=O)NCCc1ccc(F)cc1)NO | 1000 to 10000 nM
O=C(/C=C/c1ccccc1NC(=O)c1ccccc1Oc1ccc(C(F)(F)F)nc1)NO | < 1000 nM
O=C(/C=C/c1ccccc1Nc1nc2ccccc2[nH]1)NO | 1000 to 10000 nM
Cn1ccnc1CN1CCN(c2ccccc2/C=C/C(=O)NO)CC1 | < 1000 nM
CS(=O)(=O)N1CCCC(C(=O)NC2CCN(c3ccccc3/C=C/C(=O)NO)CC2)C1 (stereo not drawn) | < 1000 nM
O=C(/C=C/c1ccccc1C(=O)N1CC(N2CCS(=O)(=O)CC2)C1)NO | 1000 to 10000 nM
O=C(/C=C/c1ccccc1N1CCC(NC(=O)CCN2CCCC2=O)CC1)NO | < 1000 nM
O=C(/C=C/c1ccccc1N1CCC(NCc2ccccc2OC(F)F)CC1)NO | < 1000 nM
O=C(/C=C/c1ccccc1N1CCN(C(=O)c2ccc(OC(F)F)cc2)CC1)NO | < 1000 nM

* * *

biological target: Full length human recombinant HDAC8 protein (Homo sapiens); construct: Full length human recombinant HDAC8 protein was expressed in baculoviral system; made in house; assay: In vitro histone deacetylase assay: enzymatic HDAC8 assay, electrophoretic mobility shift; type: biochemical; conditions: substrate RHKK(Ac)-NH2, 1 nM enzyme, compounds listed under IC50 range headings
pIC50: −log10 of the molar value.
Listing: pIC50 of selected molecules
quantity-measured: pIC50

molecule | test-system | result
O=C(/C=C/c1ccccc1S(=O)(=O)C1CCN(Cc2ccccc2)CC1)NO [II-30] | Full length human recombinant HDAC8 protein (Homo sapiens) | > 6.00
CCSCC(=O)N1CCN(c2ccccc2/C=C/C(=O)NO)CC1 [Example I-197] | Full length human recombinant HDAC8 protein (Homo sapiens) | > 6.00
Cn1cncc1C(=O)N1CCN(c2ccccc2/C=C/C(=O)NO)CC1 [Example I-199] | Full length human recombinant HDAC8 protein (Homo sapiens) | > 6.00
O=C(/C=C/c1ccccc1N1CCN(S(=O)(=O)c2ccc(CNC(=O)c3ccccc3)s2)CC1)NO [Example I-32] | Full length human recombinant HDAC8 protein (Homo sapiens) | 5.00 to 6.00
CCCCN1CCN(c2ccccc2/C=C/C(=O)NO)CC1 [Example I-177] | Full length human recombinant HDAC8 protein (Homo sapiens) | > 6.00
O=C(/C=C/c1ccccc1NC(=O)C1CCc2ccccc2C1)NO (stereo not drawn) [Example I-65] | Full length human recombinant HDAC8 protein (Homo sapiens) | > 6.00
O=C(/C=C/c1ccccc1N1CCC(NS(=O)(=O)C2CCCC2)CC1)NO [Example I-27] | Full length human recombinant HDAC8 protein (Homo sapiens) | 5.00 to 6.00
Cc1noc(C)c1S(=O)(=O)NC1CCN(c2ccccc2/C=C/C(=O)NO)CC1 [Example I-220] | Full length human recombinant HDAC8 protein (Homo sapiens) | > 6.00
COCCn1c(CNc2ccccc2/C=C/C(=O)NO)nc2ccccc21 [Example I-2] | Full length human recombinant HDAC8 protein (Homo sapiens) | 5.00 to 6.00

* * *

Listing: pIC50 of selected molecules
biological target: Full length human recombinant HDAC8 protein (Homo sapiens, UniProt Q9BY41); construct: Full length human recombinant HDAC8 protein was expressed in baculoviral system; assay: In vitro histone deacetylase assay: enzymatic HDAC8 assay, electrophoretic mobility shift; conditions: substrate RHKK(Ac)-NH2, 1 nM enzyme, compounds listed under IC50 range headings
pIC50: −log10 of the molar value.
quantity-measured: pIC50

molecule | result
COc1ccc(OC)c(S(=O)(=O)N2CCN(c3ccccc3/C=C/C(=O)NO)CC2)c1 | 5.00 to 6.00
COc1ccc(CNC(=O)c2ccccc2/C=C/C(=O)NO)cc1 | 5.00 to 6.00
O=C(/C=C/c1ccccc1C(=O)Nc1ccccc1)NO | 5.00 to 6.00
CN1CCCC(C(=O)N2CCN(c3ccccc3/C=C/C(=O)NO)CC2)C1 (stereo not drawn) | > 6.00
COCC1(C(=O)N2CCN(c3ccccc3/C=C/C(=O)NO)CC2)CCC1 | 5.00 to 6.00
O=C(/C=C/c1ccccc1N1CCC(NS(=O)(=O)c2ccc(OC(F)F)cc2)CC1)NO | > 6.00
CSc1ccc(CC(=O)NC2CCN(c3ccccc3/C=C/C(=O)NO)CC2)cc1 | > 6.00
O=C(NO)/C(F)=C/c1ccccc1NC(=O)c1cccc(C(F)(F)F)c1 | > 6.00
O=C(/C=C/c1ccccc1NCc1cccc(CCCO)c1)NO | > 6.00
O=C(/C=C/c1ccccc1N1CCN(C(=O)Cc2ccc(Cl)cc2)CC1)NO | > 6.00
O=C(/C=C/c1ccccc1C(=O)NCC1CCCCC1)NO | 5.00 to 6.00
Cn1cnc(S(=O)(=O)N2CCN(c3ccccc3/C=C/C(=O)NO)CC2)c1 | > 6.00
O=C(/C=C/c1ccccc1N1CCN(Cc2cccc(C(F)(F)F)c2)CC1)NO | > 6.00
N#Cc1cccc(C(=O)Nc2ccccc2/C=C/C(=O)NO)c1 | > 6.00
O=C(/C=C/c1ccccc1N1CCN(Cc2ccc(C(F)(F)F)nc2)CC1)NO | > 6.00
CC(C)S(=O)(=O)NC1CCN(c2ccccc2/C=C/C(=O)NO)CC1 | 5.00 to 6.00
Cc1nn(C)c(Cl)c1S(=O)(=O)NC1CCN(c2ccccc2/C=C/C(=O)NO)CC1 | > 6.00
CC(=O)Nc1cccc(CNc2ccccc2/C=C/C(=O)NO)c1 | > 6.00

* * *

Listing: IC50 of selected compounds
Molecular target: Full length human recombinant HDAC8 protein (Homo sapiens)
Construct: Full length human recombinant HDAC8 protein was expressed in baculoviral system
Sequence (Q9BY41 1-377): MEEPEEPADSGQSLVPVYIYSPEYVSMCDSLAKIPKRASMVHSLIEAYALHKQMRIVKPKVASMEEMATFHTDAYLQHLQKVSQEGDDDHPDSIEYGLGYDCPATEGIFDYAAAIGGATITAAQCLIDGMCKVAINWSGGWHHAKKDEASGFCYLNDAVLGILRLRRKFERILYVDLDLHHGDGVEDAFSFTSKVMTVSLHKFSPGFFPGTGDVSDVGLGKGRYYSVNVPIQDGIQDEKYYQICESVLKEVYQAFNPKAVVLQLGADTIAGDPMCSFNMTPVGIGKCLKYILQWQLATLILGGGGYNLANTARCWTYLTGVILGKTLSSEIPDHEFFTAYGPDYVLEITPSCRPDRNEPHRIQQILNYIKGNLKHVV
Experiment: In vitro histone deacetylase assay: enzymatic HDAC8 assay, electrophoretic mobility shift
Conditions: substrate RHKK(Ac)-NH2, 1 nM enzyme, compounds listed under IC50 range headings

compound | IC50
COc1cc(-c2ccccc2)sc1C(=O)Nc1ccccc1/C=C/C(=O)NO | < 1000 nM
CCCc1nc(-c2ccccc2)sc1C(=O)Nc1ccccc1/C=C/C(=O)NO | < 1000 nM
O=C(/C=C/c1ccccc1N1CCN(Cc2cn3ccccc3n2)CC1)NO | < 1000 nM
O=C(/C=C/c1ccccc1N1CCN(C(=O)c2cnn3c2OCCC3)CC1)NO | < 1000 nM
O=C(/C=C/c1ccccc1NC(=O)c1ccccc1Oc1cccnc1)NO | < 1000 nM
O=C(/C=C/c1ccccc1N1CCN(C(=O)C2(c3ccccc3)CCC2)CC1)NO | 1000 to 10000 nM
CC(C)(C)OC(=O)N1CCCCC12CCN(c1ccccc1/C=C/C(=O)NO)CC2 | < 1000 nM
O=C(/C=C/c1ccccc1NC(=O)c1nccn1-c1ccccc1C(F)(F)F)NO | 1000 to 10000 nM
Cn1cnc(S(=O)(=O)NC2CCN(c3ccccc3/C=C/C(=O)NO)CC2)c1 | < 1000 nM
O=C(/C=C/c1ccccc1N1CCN(C(=O)C2CC(F)(F)C2)CC1)NO | < 1000 nM
O=C(/C=C/c1ccccc1N1CCC2(CCCNC2)CC1)NO [Example I-110, 2,2,2-trifluoroacetate] | < 1000 nM
O=C(/C=C/c1cccnc1NC(=O)c1cccc(C(F)(F)F)c1)NO | < 1000 nM
O=C(/C=C/c1ccccc1NCc1cccnc1)NO | < 1000 nM
CN(C)Cc1cccc(CNC2CCN(c3ccccc3/C=C/C(=O)NO)CC2)c1 | 1000 to 10000 nM
O=C(/C=C/c1ccccc1NC(=O)[C@H]1C[C@H]1c1ccccc1)NO | < 1000 nM
O=C(/C=C/c1ccccc1N1CCN(S(=O)(=O)c2ccc(OC(F)F)cc2)CC1)NO | 1000 to 10000 nM
CC(C)(C)OC(=O)N1CC(=O)N(c2ccccc2/C=C/C(=O)NO)C1 | < 1000 nM
